Data provenance: patent US20240246944A1

Recorded measurements of IC50, one per entry
System: IL-23 reporter (JAK2/Tyk2)
Test: IL-23 induced STAT3 QUANTI-Blue reporter assay in HEK-Blue IL-23 cells
Format: cell-based
Conditions: HEK-Blue IL-23, HEK-Blue IL-23 cells; Table 2; read-out: IL23 reporter assay_IC50
Numbers only; they are read as nM.

In [3]: df
Out[3]:
                            structurestring  unitannotation  testvalue
0  [2H]C([2H])([2H])NC(=O)c1nnc(NC(=O)C2CC2)cc1Nc1cccc(-c2cc(=O)n(C3CC3)cn2)c1OC              nM         18

Next, consider the following compound.
Lookup: Note IC50 for the compound shown: [2H]C([2H])([2H])NC(=O)c1nnc(NC(=O)C2CC2)cc1Nc1cccc(-n2cnc(C)n2)c1OC
Found: 6

====

Recorded measurements of IC50, one per entry
Target: N-terminal His-tagged TYK2 pseudokinase domain (Homo sapiens (Human), UniProt P29597)
Sequence (P29597 589-875): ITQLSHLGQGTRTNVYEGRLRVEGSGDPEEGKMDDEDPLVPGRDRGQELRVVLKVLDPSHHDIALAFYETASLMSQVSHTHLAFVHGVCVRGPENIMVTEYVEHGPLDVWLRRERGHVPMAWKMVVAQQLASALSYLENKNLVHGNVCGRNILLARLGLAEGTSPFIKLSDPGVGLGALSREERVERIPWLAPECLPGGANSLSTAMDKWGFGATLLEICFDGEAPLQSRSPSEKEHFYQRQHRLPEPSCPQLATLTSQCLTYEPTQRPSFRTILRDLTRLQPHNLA
Experiment: TYK2 JH2 domain SPA binding assay
Details: displacement of H3 probe
Numbers only; they are read as nM.

A selection of reference data follows.
                                   compound  testvalue
0  [2H]C([2H])([2H])NC(=O)c1cnc(NC(=O)C2CC2)cc1Nc1cccc(C(=O)NCc2ccc(NC(=O)CCl)cn2)c1OC [Example 2]       5.56
1  [2H]C([2H])([2H])NC(=O)c1cnc(NC(=O)C2CC2)cc1Nc1cc(F)cc(-c2cc(=O)n(C3CC3)cn2)c1OC [Example 6]         30
2  [2H]C([2H])([2H])NC(=O)c1cnc(NC(=O)C2CC2)cc1Nc1cccc(C(=O)NCc2ccc(NC(=O)C=C)cn2)c1OC [Example 1]         27

Next, consider the following compound.
Lookup: Note IC50 for the compound shown: [2H]C([2H])([2H])NC(=O)c1cnc(NC(=O)C2CC2)cc1Nc1cccc(-c2cc(=O)n(C3CC3)cn2)c1OC [Example 3]
Found: 16.1
